Record form. Attribute: pEC50. Fill in for each entry.
- Target Of Assay: hEBI2 (Homo sapiens)
- Sequence (P32249 whole entry): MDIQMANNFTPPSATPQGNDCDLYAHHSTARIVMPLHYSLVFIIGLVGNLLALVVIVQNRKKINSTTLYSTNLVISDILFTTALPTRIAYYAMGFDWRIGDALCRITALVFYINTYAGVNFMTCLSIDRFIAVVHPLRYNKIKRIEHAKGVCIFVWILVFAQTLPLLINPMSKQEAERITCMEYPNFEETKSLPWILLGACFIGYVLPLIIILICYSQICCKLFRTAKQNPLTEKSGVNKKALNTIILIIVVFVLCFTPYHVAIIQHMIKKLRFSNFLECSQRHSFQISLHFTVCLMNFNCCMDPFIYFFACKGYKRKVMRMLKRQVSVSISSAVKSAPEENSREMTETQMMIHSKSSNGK
- Test: β-arrestin Pathhunter assay
- Type: cell-based
- Set-up: host or cells: HEK293-BAEA, transient transfection with Fugene6
- Test Conditions: HEK293-BAEA transiently transfected with hEBI2-prolink; read-out: EC50, β-arrestin recruitment
pEC50 (log units): -log10 of the concentration in mol/L.

Would you mind telling me what pEC50 value was observed for `C[C@H](CCCC(C)(C)O)[C@H]1CC[C@H]2[C@@H]3[C@H](O)C=C4C[C@@H](O)CC[C@]4(C)[C@H]3CC[C@]12C` ?
8.10

Next: `C[C@H](CCCC(C)(C)O)[C@H]1CC[C@H]2[C@@H]3[C@@H](O)C=C4C[C@@H](O)CC[C@]4(C)[C@H]3CC[C@]12C`
6.08
